Please provide measured pKi for the entries that follow.
Molecular target: 5-hydroxytryptamine receptor 1A (Homo sapiens)
Sequence (P08908 whole entry): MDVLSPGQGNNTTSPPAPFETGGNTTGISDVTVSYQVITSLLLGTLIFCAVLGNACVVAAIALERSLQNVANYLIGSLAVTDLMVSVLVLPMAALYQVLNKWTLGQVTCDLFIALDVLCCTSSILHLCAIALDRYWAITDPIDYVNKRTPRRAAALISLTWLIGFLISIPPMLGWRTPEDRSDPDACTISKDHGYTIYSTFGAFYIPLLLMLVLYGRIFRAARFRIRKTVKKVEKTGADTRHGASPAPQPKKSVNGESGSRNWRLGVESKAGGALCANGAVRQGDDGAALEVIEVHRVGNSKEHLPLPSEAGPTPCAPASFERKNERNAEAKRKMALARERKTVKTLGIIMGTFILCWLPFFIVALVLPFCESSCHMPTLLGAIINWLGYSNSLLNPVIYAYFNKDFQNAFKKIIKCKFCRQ
API: returns pKi as number; meaning -log10 of concentration in mol/L.

Query: Specify the recorded pKi for COc1cccc2c1C(CN1CCC3(CC1)C(=O)NCN3c1ccccc1)CCO2 (stereo not drawn) , system: 5-hydroxytryptamine receptor 1A (Homo sapiens).
Result: 7.92

Query: // fetch pKi; item: COc1ccc2c(c1)OCCC2CNCCCc1ccccc1 (stereo not drawn) ; system: 5-hydroxytryptamine receptor 1A (Homo sapiens)
Result: 7.55

Query: State pKi on 5-hydroxytryptamine receptor 1A (Homo sapiens). Entry: COc1cccc2c1OCCC2CNCCCc1ccccc1 (stereo not drawn)
Result: 8.15

Query: Answer briefly: pKi recorded on 5-hydroxytryptamine receptor 1A (Homo sapiens) for COc1ccc2c(c1)OCCC2CN1CCC2(CC1)C(=O)NCN2c1ccccc1 (stereo not drawn)
Result: 6.21

Query: GET pKi where system = 5-hydroxytryptamine receptor 1A (Homo sapiens) and item = COc1ccc2c(c1)C(CN1CCC3(CC1)C(=O)NCN3c1ccccc1)CCO2 (stereo not drawn)
Result: 6.61

Query: State measured pKi of the compound COc1ccc2c(c1)C(CNCCCc1ccccc1)CCO2 (stereo not drawn) with 5-hydroxytryptamine receptor 1A (Homo sapiens).
Result: 7.03

---

Target: D(2) dopamine receptor (Rattus norvegicus)
Test: Compound was tested for its binding affinity against Dopamine receptor D2 using [3H]raclopride radioligand
Give measured Ki for each item. Keep answers brief.
Quick note: give the figure in nM, leave out the unit.

Query: # return recorded Ki for input COc1cccc2c1OCCC2CNCCCc1ccccc1 (stereo not drawn)
Result: 620

Query: Specify reported Ki for the compound shown: COc1ccc2c(c1)OCCC2CN1CCC2(CC1)C(=O)NCN2c1ccccc1 (stereo not drawn)
Result: 274

Query: Give the measured Ki for COc1ccc2c(c1)C(CN1CCC3(CC1)C(=O)NCN3c1ccccc1)CCO2 (stereo not drawn)
Result: 164

Query: Return the recorded Ki value; entry: COc1cccc2c1C(CN1CCC3(CC1)C(=O)NCN3c1ccccc1)CCO2 (stereo not drawn)
Result: 29

Query: In one line, give reported Ki of the entry COc1cccc2c1C(CNCCCc1ccccc1)CCO2 (stereo not drawn) .
Result: 279

---

Molecular target: D(2) dopamine receptor (Rattus norvegicus, UniProt P61169)
Sequence (P61169 whole entry): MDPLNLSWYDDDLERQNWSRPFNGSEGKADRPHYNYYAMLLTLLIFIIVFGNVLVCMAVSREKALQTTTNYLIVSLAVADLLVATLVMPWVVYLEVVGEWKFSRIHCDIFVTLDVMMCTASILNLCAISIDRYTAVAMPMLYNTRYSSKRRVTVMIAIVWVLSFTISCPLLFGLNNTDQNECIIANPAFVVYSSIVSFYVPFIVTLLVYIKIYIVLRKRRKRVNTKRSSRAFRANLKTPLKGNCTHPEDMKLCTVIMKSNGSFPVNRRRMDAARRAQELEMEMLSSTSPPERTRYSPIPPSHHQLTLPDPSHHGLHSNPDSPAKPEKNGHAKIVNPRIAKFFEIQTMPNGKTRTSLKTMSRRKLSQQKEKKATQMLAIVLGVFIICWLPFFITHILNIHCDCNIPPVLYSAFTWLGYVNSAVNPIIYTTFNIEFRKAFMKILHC
Assay: Compound was tested for its binding affinity against Dopamine receptor D2 using [3H]raclopride radioligand
assay_readout: Ki

Query: Hello, please tell me recorded Ki for this one: COc1ccc2c(c1)C(CNCCCc1ccccc1)CCO2 (stereo not drawn)
Result: > 1000 nM

Query: Please look at this compound and report its Ki: COc1ccc2c(c1)OCCC2CNCCCc1ccccc1 (stereo not drawn)
Result: > 1000 nM

Query: Fill in reported Ki for this entry: COc1cccc2c1OCCC2CN1CCC2(CC1)C(=O)NCN2c1ccccc1 (stereo not drawn)
Result: > 1000 nM
